Please provide measured MIC for the entries that follow.
Test system: Candida albicans
Assay: Antifungal activity against fluconazole/ITC-resistant Candida albicans ATCC 90819 measured after 48 hrs by CLSI M27-A3 protocol based method
Format: functional
Details: ATCC 90819, 48 h
Give bare numbers, in µg/mL.

Please review the following examples before continuing.
compound	quantitative-result
COc1ccc(N/N=C/c2ccc(-c3ccc(/C=N/Nc4ccc(OC)cc4)cc3)cc2)cc1	7.8
Fc1cccc(N/N=C/c2ccc(-c3cccc(/C=N/Nc4cccc(F)c4)c3)cc2)c1	15.6
C(=N\Nc1ccccc1)/c1ccc(-c2cccc(/C=N/Nc3ccccc3)c2)cc1	31.3
C(=N\Nc1ccccc1)/c1ccc(-c2ccc(/C=N/Nc3ccccc3)cc2)cc1	31.3
CC[C@H](C)C[C@H](C)CCCCCCCCC(=O)N[C@H]1C[C@@H](O)[C@@H](NCCN)NC(=O)[C@@H]2[C@@H](O)CCN2C(=O)[C@H]([C@H](O)CCN)NC(=O)[C@H]([C@H](O)[C@@H](O)c2ccc(O)cc2)NC(=O)[C@@H]2C[C@@H](O)CN2C(=O)[C@H]([C@@H](C)O)NC1=O [CASPOFUNGIN]	0.12

Hi! Can you tell me MIC for each of these compounds?
1. Fc1ccccc1N/N=C/c1ccc(-c2cccc(/C=N/Nc3ccccc3F)c2)cc1
2. Clc1ccc(N/N=C/c2ccc(-c3cccc(/C=N/Nc4ccc(Cl)cc4)c3)cc2)cc1
3. COc1ccc(N/N=C/c2ccc(-c3cccc(/C=N/Nc4ccc(OC)cc4)c3)cc2)cc1
4. C/C(=N\Nc1ccc(F)cc1)c1ccc(-c2ccc(/C(C)=N/Nc3ccc(F)cc3)cc2)cc1

RESULT:
1. 15.6
2. 15.6
3. 3.9
4. 7.8

QUERY: Give the measured MIC of Fc1ccccc1N/N=C/c1ccc(-c2ccc(/C=N/Nc3ccccc3F)cc2)cc1 .
RESULT: 31.3

Taken from ChEMBL document CHEMBL4411307.
